target: human recombinant heparanase (h-hpa) (Homo sapiens, UniProt Q9Y251); experiment: In vitro dimethylmethylene blue (DMB) assay for heparanase activity
Sequence (Q9Y251 158-543 limits assumed): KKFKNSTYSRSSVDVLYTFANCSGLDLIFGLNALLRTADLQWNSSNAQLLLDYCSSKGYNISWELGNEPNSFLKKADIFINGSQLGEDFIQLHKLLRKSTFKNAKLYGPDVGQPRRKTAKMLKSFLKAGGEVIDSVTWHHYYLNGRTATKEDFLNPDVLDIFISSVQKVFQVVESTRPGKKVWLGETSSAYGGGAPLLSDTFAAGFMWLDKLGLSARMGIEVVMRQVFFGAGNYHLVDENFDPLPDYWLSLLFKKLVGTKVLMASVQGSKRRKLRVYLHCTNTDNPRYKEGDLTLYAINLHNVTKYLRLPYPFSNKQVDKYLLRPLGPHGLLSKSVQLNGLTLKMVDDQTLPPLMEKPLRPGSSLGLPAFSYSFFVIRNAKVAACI
Sequence (Q9Y251 36-109 limits assumed): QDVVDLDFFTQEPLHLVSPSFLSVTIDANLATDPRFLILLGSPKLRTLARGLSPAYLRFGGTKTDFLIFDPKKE
pIC50: −log10 of the molar value.
QUANTITY_MEASURED: pIC50

Examples with their reported pIC50 follow.
>  <MOLECULE>
CCCCCCCCCCCCCCCCOc1ccccc1C1C=NN(c2ccc(S(=O)(=O)O)cc2)C1=O (centres unmarked)

>  <pIC50>
6.00

$$$$
>  <MOLECULE>
C=CCCCCCCCCCCCCCCC(CC(=O)NC1=NN(c2c(Cl)cc(Cl)cc2Cl)C(=O)C1)C(=O)O (centres unmarked)

>  <pIC50>
5.17

$$$$
>  <MOLECULE>
CCCCCCCCCCCCCCCCCCNC(=O)Nc1ccc(S(=O)(=O)O)cc1

>  <pIC50>
5.15

$$$$

a: CCCCCCCCCCCCCCCCCC(=O)NC1=NN(c2ccc(Oc3ccccc3)c(S(=O)(=O)O)c2)C(=O)C1/N=N/c1ccc(O)c(C(=O)O)c1 (centres unmarked)
b: CCCCCCCCCCCCCCCC(=O)NC(CN1CCOCC1)C(O)c1ccccc1 (centres unmarked)
[in] // which entry has the larger pIC50 value, a or b ? Identify your pick by its label.
[out] a
(a: 6.72, b: 4.72)
